Please go through the items and note down their self-splicing fitness (ln).
EXPERIMENT SUMMARY: self-splicing fitness, log relative to wild type (ln ratio); higher = more splicing; Tetrahymena group I intron in knt gene, E. coli kanamycin selection, DiMSum; sequences stand for … in CUCUCU…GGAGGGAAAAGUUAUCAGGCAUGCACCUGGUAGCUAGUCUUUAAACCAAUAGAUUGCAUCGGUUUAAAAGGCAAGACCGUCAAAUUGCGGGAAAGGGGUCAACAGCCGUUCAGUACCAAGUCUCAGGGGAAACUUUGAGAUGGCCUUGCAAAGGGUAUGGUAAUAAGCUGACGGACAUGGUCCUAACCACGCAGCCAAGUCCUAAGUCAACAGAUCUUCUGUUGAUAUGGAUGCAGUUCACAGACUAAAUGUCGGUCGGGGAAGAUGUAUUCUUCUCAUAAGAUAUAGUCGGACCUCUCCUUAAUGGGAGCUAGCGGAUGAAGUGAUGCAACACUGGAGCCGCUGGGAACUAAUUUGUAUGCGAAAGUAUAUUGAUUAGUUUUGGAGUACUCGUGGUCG;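 also: selection with 25 µg/mL kanamycin versus none on LB agar overnight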
MEASUREMENT PARAMETERS: 30 °C

UUCUAGCAAUAUUACGCCUA: -1.94
UUGAAGCAAUAUUACGUCAG: 0.252
AAUCAGCAAUAUUACGUCUA: -0.491

Below are 4 sequences. Give each one its self-splicing fitness (ln).
1. CAAAAGCAAUAUUACGAGCU
2. CGACAGCAAUAUUACGCUAA
3. GCUAAGCAAUAUUACGUACG
4. UCAGAGCAAUAUUACGGUAA

-3.99
-2.16
-1.67
-3.7

---

EXPERIMENT SUMMARY: self-splicing fitness, log relative to wild type (ln ratio); higher = more splicing; Tetrahymena group I intron in knt gene, E. coli kanamycin selection, DiMSum; sequences stand for … in CUCUCU…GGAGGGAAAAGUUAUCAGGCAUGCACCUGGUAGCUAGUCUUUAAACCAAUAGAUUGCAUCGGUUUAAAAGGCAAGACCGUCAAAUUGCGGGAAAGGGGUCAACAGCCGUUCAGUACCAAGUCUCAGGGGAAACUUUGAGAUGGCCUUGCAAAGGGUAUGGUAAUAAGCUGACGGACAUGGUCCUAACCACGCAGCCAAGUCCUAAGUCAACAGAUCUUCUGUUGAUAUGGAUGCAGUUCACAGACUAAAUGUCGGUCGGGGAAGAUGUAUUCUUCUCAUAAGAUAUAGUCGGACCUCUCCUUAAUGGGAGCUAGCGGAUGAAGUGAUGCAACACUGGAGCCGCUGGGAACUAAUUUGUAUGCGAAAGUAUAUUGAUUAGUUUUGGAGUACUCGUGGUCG
MEASUREMENT PARAMETERS: 37 °C
Threshold check on self-splicing fitness (ln): at or above -2 gives 1.0, strictly below gives 0.0.

UUACAGCAAUAUUACGCCCA: 1.0
AAACAGCAAUAUUACGAGUU: 1.0

Kindly determine if self-splicing fitness (ln) recorded for GAACAGCAAUAUUACGACGC is above or exactly -2.
1.0

Kindly determine if self-splicing fitness (ln) recorded for UUCUAGCAAUAUUACGGCGG is above or exactly -2.
1.0

---

Please go through the items and note down their self-splicing fitness (ln).
EXPERIMENT SUMMARY: self-splicing fitness, log relative to wild type (ln ratio); higher = more splicing; Tetrahymena group I intron in knt gene, E. coli kanamycin selection, DiMSum; sequences stand for … in CUCUCU…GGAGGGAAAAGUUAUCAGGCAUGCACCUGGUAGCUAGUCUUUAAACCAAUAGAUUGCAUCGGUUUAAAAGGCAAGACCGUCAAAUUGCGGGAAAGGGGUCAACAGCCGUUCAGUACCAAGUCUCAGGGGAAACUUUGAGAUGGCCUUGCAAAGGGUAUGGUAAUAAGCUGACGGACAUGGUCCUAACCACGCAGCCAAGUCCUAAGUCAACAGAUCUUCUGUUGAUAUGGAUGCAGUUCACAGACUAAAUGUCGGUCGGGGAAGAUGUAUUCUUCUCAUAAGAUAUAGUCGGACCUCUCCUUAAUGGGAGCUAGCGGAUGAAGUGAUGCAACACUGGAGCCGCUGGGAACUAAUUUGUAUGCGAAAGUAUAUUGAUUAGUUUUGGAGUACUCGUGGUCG
MEASUREMENT PARAMETERS: 37 °C
Numbers only.

Answered cases to consult:
GCCCAGCAAUAUUACGUACA: -0.789
CUACAGCAAUAUUACGUCUU: -3.48
GUCGAGCAAUAUUACGGCCA: -0.721

Below are 2 sequences. Give each one its self-splicing fitness (ln).
1. CGUUAGCAAUAUUACGGAGC
2. GGGAAGCAAUAUUACGUCGA

1: -1.35; 2: -0.739

---

EXPERIMENT SUMMARY: self-splicing fitness, log relative to wild type (ln ratio); higher = more splicing; Tetrahymena group I intron in knt gene, E. coli kanamycin selection, DiMSum; sequences stand for … in CUCUCU…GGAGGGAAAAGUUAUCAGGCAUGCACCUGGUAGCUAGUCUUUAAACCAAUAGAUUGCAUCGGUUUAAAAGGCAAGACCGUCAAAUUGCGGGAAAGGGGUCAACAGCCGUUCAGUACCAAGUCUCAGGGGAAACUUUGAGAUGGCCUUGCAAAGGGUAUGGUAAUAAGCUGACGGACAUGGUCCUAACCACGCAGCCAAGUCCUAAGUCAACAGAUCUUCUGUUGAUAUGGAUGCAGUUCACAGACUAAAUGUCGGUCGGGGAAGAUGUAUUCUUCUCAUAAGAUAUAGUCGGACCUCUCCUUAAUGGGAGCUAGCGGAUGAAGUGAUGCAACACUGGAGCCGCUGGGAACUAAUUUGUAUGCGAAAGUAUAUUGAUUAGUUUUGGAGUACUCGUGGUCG
MEASUREMENT PARAMETERS: 30 °C
RESULT TYPE: self-splicing fitness (ln)
One number for each entry.

UAAGAGCAAUAUUACGUGAA: -1.72

Below are 4 sequences. Give each one its self-splicing fitness (ln).
1. UAGGAGCAAUAUUACGGCAG
2. AUGCAGCAAUAUUACGUAUG
3. AUCCAGCAAUAUUACGCCGC
4. UUUAAGCAAUAUUACGGACU

1. -3.1
2. -3.15
3. -4.25
4. -1.59

---

EXPERIMENT SUMMARY: self-splicing fitness, log relative to wild type (ln ratio); higher = more splicing; Tetrahymena group I intron in knt gene, E. coli kanamycin selection, DiMSum; sequences stand for … in CUCUCU…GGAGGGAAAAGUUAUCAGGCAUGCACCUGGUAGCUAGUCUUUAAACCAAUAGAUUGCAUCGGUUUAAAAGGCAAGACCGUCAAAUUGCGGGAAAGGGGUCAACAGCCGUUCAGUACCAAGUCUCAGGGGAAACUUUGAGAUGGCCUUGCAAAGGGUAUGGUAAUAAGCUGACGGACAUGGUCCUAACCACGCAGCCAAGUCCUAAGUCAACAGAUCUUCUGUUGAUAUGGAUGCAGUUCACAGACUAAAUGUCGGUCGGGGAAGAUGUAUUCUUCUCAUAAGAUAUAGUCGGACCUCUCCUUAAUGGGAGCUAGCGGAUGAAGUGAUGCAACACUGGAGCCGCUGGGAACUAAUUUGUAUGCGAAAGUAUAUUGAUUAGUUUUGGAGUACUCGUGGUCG
MEASUREMENT PARAMETERS: 37 °C
Threshold check on self-splicing fitness (ln): at or above -2 gives rule met, strictly below gives rule not met.

AGGGAGCAAUAUUACGUAGA: rule not met
UUGGAGCAAUAUUACGCGUG: rule met
GAAGAGCAAUAUUACGUCCU: rule met
CGCUAGCAAUAUUACGCGGC: rule not met
GAGUAGCAAUAUUACGAAAG: rule met
GGUAAGCAAUAUUACGGUCA: rule met
GAUCAGCAAUAUUACGCCGA: rule met
AUUGAGCAAUAUUACGUCGG: rule met
GGCAAGCAAUAUUACGUGGA: rule met
UCAUAGCAAUAUUACGGCUU: rule met

Kindly determine if self-splicing fitness (ln) recorded for CAAUAGCAAUAUUACGCAUA is above or exactly -2.
rule not met

Kindly determine if self-splicing fitness (ln) recorded for UAAAAGCAAUAUUACGCAUU is above or exactly -2.
rule not met

Kindly determine if self-splicing fitness (ln) recorded for CGCGAGCAAUAUUACGCUUC is above or exactly -2.
rule met

Kindly determine if self-splicing fitness (ln) recorded for GUGAAGCAAUAUUACGUUAU is above or exactly -2.
rule met

Kindly determine if self-splicing fitness (ln) recorded for GCACAGCAAUAUUACGGGUA is above or exactly -2.
rule met

Kindly determine if self-splicing fitness (ln) recorded for CUGGAGCAAUAUUACGUCCA is above or exactly -2.
rule not met

Kindly determine if self-splicing fitness (ln) recorded for UGCCAGCAAUAUUACGCCUA is above or exactly -2.
rule met
